# assayed target: T1, Cynomolgus monkey CD1a protein (Cynomolgus monkey)
# T1 chain: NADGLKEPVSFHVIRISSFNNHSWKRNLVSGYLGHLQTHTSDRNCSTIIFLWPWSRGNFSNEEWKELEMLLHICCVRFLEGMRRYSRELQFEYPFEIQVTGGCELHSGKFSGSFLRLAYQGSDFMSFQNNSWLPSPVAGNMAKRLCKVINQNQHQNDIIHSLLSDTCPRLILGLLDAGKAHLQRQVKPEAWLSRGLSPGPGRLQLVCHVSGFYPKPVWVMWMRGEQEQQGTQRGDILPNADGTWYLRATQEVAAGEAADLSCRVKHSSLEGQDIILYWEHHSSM
# method: ELISA, 10 µg/ml antibody

- binder: "110 (VR12112) (antibody, V domains shown, also called OX110; antibody 110) VH: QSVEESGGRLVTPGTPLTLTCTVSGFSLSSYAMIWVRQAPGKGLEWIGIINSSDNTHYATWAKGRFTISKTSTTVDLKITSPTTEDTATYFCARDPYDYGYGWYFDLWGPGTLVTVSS VL: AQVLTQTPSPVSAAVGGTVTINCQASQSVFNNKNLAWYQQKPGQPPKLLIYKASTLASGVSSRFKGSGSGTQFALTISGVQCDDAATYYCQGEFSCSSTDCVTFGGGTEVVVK"
  Optical Density (OD): 0.86
